- system: T1, recombinant human lymphotoxin-α homotrimer (human LTα3) (human, UniProt P01374 35-205)
- T1 construct: Coated on plates in the ELISAs; also called rhLTα; lymphotoxin-α3 trimer
- T1 sequence (looked up): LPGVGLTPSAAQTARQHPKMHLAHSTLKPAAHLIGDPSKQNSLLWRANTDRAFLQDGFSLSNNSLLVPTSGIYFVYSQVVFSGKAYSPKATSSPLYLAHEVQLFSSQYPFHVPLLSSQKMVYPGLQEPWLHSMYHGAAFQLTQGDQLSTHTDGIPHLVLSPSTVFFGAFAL
- assay_procedure: plate-based ELISA against LTα
measurement_label: relative binding (EC50 of the variant / EC50 of version 5) (ratio)
Kindly answer with a numeric value in ratio, unit omitted.

binder	observed
3F12 version 23 (3F12.v5 with R96A, CDR-L3) (antibody, IgG1, V domains shown, Alanine-scan variant of 3F12.v5; human kappa / IgG1) VH: EVQLVESGGGLVQPGGSLRLSCAASGYTFSSYWIEWVRQAPGKGLEWVGEISPGSGSTNYNEEFKGRATFSADNSKNTAYLQMNSLRAEDTAVYYCADGYHGYWGQGTLVTVSS VL: DIQMTQSPSSLSASVGDRVTITCKSSQSLLYSTNQKNFLAWYQQKPGKAPKLLIYWASTRDSGVPSRFSGSGSGTDFTLTISSLQPEDFATYYCQQYYSYPATFGQGTKVEIK	18.2
3F12 version 15 (3F12.v5 with N34A, CDR-L1) (antibody, IgG1, V domains shown, Alanine-scan variant of 3F12.v5; human kappa / IgG1; also called 3F12 clone 15) VH: EVQLVESGGGLVQPGGSLRLSCAASGYTFSSYWIEWVRQAPGKGLEWVGEISPGSGSTNYNEEFKGRATFSADNSKNTAYLQMNSLRAEDTAVYYCADGYHGYWGQGTLVTVSS VL: DIQMTQSPSSLSASVGDRVTITCKSSQSLLYSTAQKNFLAWYQQKPGKAPKLLIYWASTRDSGVPSRFSGSGSGTDFTLTISSLQPEDFATYYCQQYYSYPRTFGQGTKVEIK	0.49
3F12 version 25 (3F12.v5 with G55A, CDR-H2) (antibody, IgG1, V domains shown, Alanine-scan variant of 3F12.v5; human kappa / IgG1) VH: EVQLVESGGGLVQPGGSLRLSCAASGYTFSSYWIEWVRQAPGKGLEWVGEISPGSASTNYNEEFKGRATFSADNSKNTAYLQMNSLRAEDTAVYYCADGYHGYWGQGTLVTVSS VL: DIQMTQSPSSLSASVGDRVTITCKSSQSLLYSTNQKNFLAWYQQKPGKAPKLLIYWASTRDSGVPSRFSGSGSGTDFTLTISSLQPEDFATYYCQQYYSYPRTFGQGTKVEIK	1.2

Below: the item to evaluate.
Field request: relative binding (EC50 of the variant / EC50 of version 5) | item: 3F12 version 18 (3F12.v5 with Q89A, CDR-L3) (antibody, IgG1, V domains shown, Alanine-scan variant of 3F12.v5; human kappa / IgG1) VH: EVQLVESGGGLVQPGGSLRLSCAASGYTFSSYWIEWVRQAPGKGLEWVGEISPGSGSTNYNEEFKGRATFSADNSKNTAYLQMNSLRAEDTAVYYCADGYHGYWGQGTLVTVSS VL: DIQMTQSPSSLSASVGDRVTITCKSSQSLLYSTNQKNFLAWYQQKPGKAPKLLIYWASTRDSGVPSRFSGSGSGTDFTLTISSLQPEDFATYYCAQYYSYPRTFGQGTKVEIK
4.2
